# Tested on: K562
# Protocol: CellTiter-Blue cell viability, K562
# Format: cell-based, human
# Condition Notes: Homo sapiens, K562, 72 h, read-out: IC50 against K562
Property: IC50 (nM)

>  <Smiles Data>
CN1CCN(Cc2ccc(NC(=O)c3cncc(C#Cc4cnc5ccccn45)c3)cc2C(F)(F)F)CC1

>  <Tested System>
K562

>  <IC50 [nM]>
0.57

$$$$

[1] CN1CCN(Cc2ccc(NC(=O)c3cncc(C#Cc4cnc5ccnn5c4)c3)cc2C(F)(F)F)CC1
[2] Cc1ncc(C(=O)Nc2ccc(CN3CCN(C)CC3)c(C(F)(F)F)c2)cc1C#Cc1cnc2cccnn12
[3] CN1CCN(Cc2ccc(NC(=O)c3cncc(C#Cc4cnc5cnccn45)c3)cc2C(F)(F)F)CC1
Problem: Number of compounds to sort: 3. Sort criterion: IC50, ascending. Please list the labels according to the requested order.
Solution: 2, 3, 1

----------
Attribute: inhibition at 0.004 µM
# Tested System: FLT3 (ITD) (Homo sapiens, UniProt P36888, ITD)
# Sequence (P36888 564-993, change not shown): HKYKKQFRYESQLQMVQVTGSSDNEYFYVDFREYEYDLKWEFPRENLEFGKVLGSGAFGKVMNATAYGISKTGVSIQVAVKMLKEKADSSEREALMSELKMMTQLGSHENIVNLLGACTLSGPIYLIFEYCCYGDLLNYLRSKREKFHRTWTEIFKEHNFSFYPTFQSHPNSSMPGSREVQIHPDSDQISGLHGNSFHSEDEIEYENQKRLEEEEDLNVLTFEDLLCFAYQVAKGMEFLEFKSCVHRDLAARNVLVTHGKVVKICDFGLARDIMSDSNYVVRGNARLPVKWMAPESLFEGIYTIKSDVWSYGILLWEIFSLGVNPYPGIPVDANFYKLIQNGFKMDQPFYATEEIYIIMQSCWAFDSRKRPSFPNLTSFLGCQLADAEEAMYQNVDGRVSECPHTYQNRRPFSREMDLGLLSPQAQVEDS
# Protocol: Reaction Biology 33P-ATP kinase assay, FLT3
# Condition Notes: read-out: inhibition against FLT3(ITD)
Provide the reading as a plain figure in %.

>  <Smiles Data>
CN1CCN(Cc2ccc(NC(=O)c3cncc(C#Cc4cnc5cccnn45)c3)cc2C(F)(F)F)CC1

>  <Unit Abbreviation>
%

>  <inhibition at 0.004 µM>
86

$$$$
>  <Smiles Data>
CN1CCN(Cc2ccc(NC(=O)c3cncc(C#Cc4cnc5ccccn45)c3)cc2C(F)(F)F)CC1

>  <Unit Abbreviation>
%

>  <inhibition at 0.004 µM>
91

$$$$

Next, consider the following compound.
Problem: Give a short answer stating reported inhibition at 0.004 µM for CN1CCN(Cc2ccc(C(=O)Nc3cncc(C#Cc4cnc5cccnn45)c3)cc2C(F)(F)F)CC1 .
Solution: 84

----------
# Tested on: K562
# Protocol: CellTiter-Blue cell viability, K562
# Assay type: cell-based, human
# Condition Notes: Homo sapiens, K562, 72 h, read-out: IC50 against K562
pIC50: −log10 of the molar value.
Property: pIC50

>  <Molecule>
CN1CCN(Cc2ccc(C(=O)Nc3cncc(C#Cc4cnc5cccnn45)c3)cc2C(F)(F)F)CC1 [HSL338]

>  <pIC50>
9.35

$$$$
>  <Molecule>
Cc1ccc(C(=O)Nc2ccc(CN3CCN(C)CC3)c(C(F)(F)F)c2)cc1C#Cc1cnc2cccnn12 [ponatinib, reference compound]

>  <pIC50>
9.22

$$$$

[P] CN1CCN(Cc2ccc(NC(=O)c3cncc(C#Cc4cncc5nccn45)c3)cc2C(F)(F)F)CC1 [HSL407]
[Q] CN1CCN(Cc2ccc(NC(=O)c3cccc(C#Cc4cnc5cccnn45)c3)cc2C(F)(F)F)CC1 [HSL331]
Problem: Sort P and Q by pIC50 descending and give the first. // output: label of the selected item
Solution: Q
(Q: 9.59, P: 8.74)

----------
# Test system: LC2/Ad
# Protocol: CellTiter-Blue cell viability, LC2/Ad
# Type: cell-based
# Condition Notes: Homo sapiens, LC-2-ad, 72 h, read-out: IC50 against LC2/Ad
Property: pIC50
Note: pIC50 values are expressed as the negative base-10 logarithm of concentration in M.

Problem: Give a short answer stating reported pIC50 for Cc1ccc(C(=O)Nc2ccc(CN3CCN(C)CC3)c(C(F)(F)F)c2)cc1C#Cc1cnc2cccnn12 [ponatinib, reference compound] .
Solution: 7.45
